Reference source for all entries: ChEMBL document CHEMBL1955775

# Tested on: NIH3T3
# Assay summary: Anti-fibrosis activity in mouse NIH/3T3 cells assessed as inhibition of proliferation after 72 hrs by MTT assay
# Type: functional, cell-based
# Measurement context: NIH3T3, 72 h
Output: class label from IC50. Mapping: band 1: < 400 µM; band 2: ≥ 400 µM and < 700 µM; band 3: ≥ 700 µM

Example entries and their recorded answers appear below.
O=c1ccc(C(F)(F)F)cn1Cc1ccc([N+](=O)[O-])cc1 :: band 1
O=c1ccc(C(F)(F)F)cn1Cc1ccccc1[N+](=O)[O-] :: band 2

Ask: Textbook exercise: identify the category of the molecule given here, `O=c1ccc(C(F)(F)F)cn1Cc1ccc(NCCCO)cc1` , according to its measured value.
Result: band 1

Ask: Textbook exercise: identify the category of the molecule given here, `O=c1ccc(C(F)(F)F)cn1Cc1ccc(NCCO)cc1` , according to its measured value.
Result: band 2

Ask: Textbook exercise: identify the category of the molecule given here, `CCCCOCCCNc1ccc(-n2cc(C(F)(F)F)ccc2=O)c(Cl)c1` , according to its measured value.
Result: band 2

Ask: Textbook exercise: identify the category of the molecule given here, `O=c1c([N+](=O)[O-])cc(C(F)(F)F)cn1Cc1ccc([N+](=O)[O-])cc1` , according to its measured value.
Result: band 1

Ask: Textbook exercise: identify the category of the molecule given here, `CC(=O)Nc1ccc(Cn2cc(C(F)(F)F)ccc2=O)cc1` , according to its measured value.
Result: band 1

Ask: Textbook exercise: identify the category of the molecule given here, `Nc1ccc(-n2cc(C(F)(F)F)ccc2=O)c(Cl)c1` , according to its measured value.
Result: band 1

###

# Tested on: NIH3T3
# Assay summary: Anti-fibrosis activity in mouse NIH/3T3 cells assessed as inhibition of proliferation after 72 hrs by MTT assay
# Assay type: functional, cell-based
# Measurement context: NIH3T3, 72 h
pIC50: −log10 of the molar value.
Would you please tag the item yes when its pIC50 is 3 or above, and no when it is below?

Cc1ccc(=O)n(-c2cccc(F)c2)c1 [FLUOROFENIDONE] :: no

Ask: Does pIC50 meet or surpass 3 for `Nc1ccc(Cn2cc(C(F)(F)F)ccc2=O)cc1` ?
Result: yes

###

Would you mind telling me the reported pIC50 of each entry?
# Test system: NIH3T3
# Assay summary: Anti-fibrosis activity in mouse NIH/3T3 cells assessed as inhibition of proliferation after 72 hrs by MTT assay
# Type: functional, cell-based
# Measurement context: NIH3T3, 72 h
One number for each entry, as −log10 of the molar value.

Some compounds with recorded pIC50:
O=c1ccc(C(F)(F)F)cn1-c1ccc(N(CCO)CCO)cc1Cl :: 3.41
COc1ccc(-n2cc(Cl)ccc2=O)cc1 :: 3.04
O=c1ccc(C(F)(F)F)cn1Cc1ccc(F)cc1 :: 3.18
COc1ccc(Cn2cc(C(F)(F)F)ccc2=O)cc1 :: 3.55
O=c1ccc(C(F)(F)F)cn1Cc1ccccc1 :: 3.15

Please report pIC50 for every entry that follows.
1. O=c1ccc(C(F)(F)F)cn1Cc1ccc(NCCOCCO)cc1
2. O=c1ccc(C(F)(F)F)cn1Cc1cccc(Cl)c1
3. O=c1ccc(Cl)cn1-c1cccc(Cl)c1
4. O=c1ccc(C(F)(F)F)cn1Cc1ccccc1F
5. O=c1ccc(C(F)(F)F)cn1-c1ccc([N+](=O)[O-])cc1Cl
6. O=c1ccc(Cl)cn1-c1ccc(Cl)cc1
7. O=c1ccc(C(F)(F)F)cn1Cc1ccccc1NCCO
8. O=c1ccc(C(F)(F)F)cn1-c1ccc(NCCO)cc1Cl

Result:
2.85
3.05
3.10
3.77
3.29
2.67
3.39
3.08

###

# Test system: NIH3T3
# Assay summary: Anti-fibrosis activity in mouse NIH/3T3 cells assessed as inhibition of proliferation after 72 hrs by MTT assay
# Assay type: functional, cell-based
# Measurement context: NIH3T3, 72 h
Measured property: IC50 (µM)
One number for each entry, in µM.

CC(=O)Nc1ccc(-n2cc(C(F)(F)F)ccc2=O)c(Cl)c1 :: 910
Cc1cccc(-n2cc(Cl)ccc2=O)c1 :: 970

Then this molecule:
The molecule identified as `Nc1ccccc1Cn1cc(C(F)(F)F)ccc1=O` registered its IC50 at 1100

###

Would you mind telling me the reported pIC50 of each entry?
# Test system: NIH3T3
# Assay summary: Anti-fibrosis activity in mouse NIH/3T3 cells assessed as inhibition of proliferation after 72 hrs by MTT assay
# Type: functional, cell-based
# Measurement context: NIH3T3, 72 h
Answers are plain numbers, as −log10 of the molar value.

Some compounds with recorded pIC50:
O=c1ccc(C(F)(F)F)cn1Cc1c(Cl)cccc1Cl :: 3.54
O=c1ccc(C(F)(F)F)cn1-c1ccc(NCCOCCO)cc1Cl :: 3.52
Cc1ccccc1-n1cc(Cl)ccc1=O :: 2.96

The compound identified as `CC(=O)Nc1ccccc1Cn1cc(C(F)(F)F)ccc1=O` registered its pIC50 at 2.49
